Assay: Cmax in cynomolgus monkey at 10 mg/kg, po
Assay type: ADME, organism-based, Macaca fascicularis
Design: dose 10 mg/kg, route oral
Conditions: in vivo
endpointName: Cmax (ng/mL)
Quick reminder: number only, in ng/mL, skip the unit.

The recorded Cmax for entry "COc1c([C@@H]2O[C@H](CO)[C@@H](F)[C@H](O)[C@H]2O)cc(Cc2ccc3c(c2)OCCO3)c2c1CCO2" equals 1490

* * *

Target: Sodium/glucose cotransporter 2 (Homo sapiens, UniProt P31639)
Sequence (P31639 whole entry): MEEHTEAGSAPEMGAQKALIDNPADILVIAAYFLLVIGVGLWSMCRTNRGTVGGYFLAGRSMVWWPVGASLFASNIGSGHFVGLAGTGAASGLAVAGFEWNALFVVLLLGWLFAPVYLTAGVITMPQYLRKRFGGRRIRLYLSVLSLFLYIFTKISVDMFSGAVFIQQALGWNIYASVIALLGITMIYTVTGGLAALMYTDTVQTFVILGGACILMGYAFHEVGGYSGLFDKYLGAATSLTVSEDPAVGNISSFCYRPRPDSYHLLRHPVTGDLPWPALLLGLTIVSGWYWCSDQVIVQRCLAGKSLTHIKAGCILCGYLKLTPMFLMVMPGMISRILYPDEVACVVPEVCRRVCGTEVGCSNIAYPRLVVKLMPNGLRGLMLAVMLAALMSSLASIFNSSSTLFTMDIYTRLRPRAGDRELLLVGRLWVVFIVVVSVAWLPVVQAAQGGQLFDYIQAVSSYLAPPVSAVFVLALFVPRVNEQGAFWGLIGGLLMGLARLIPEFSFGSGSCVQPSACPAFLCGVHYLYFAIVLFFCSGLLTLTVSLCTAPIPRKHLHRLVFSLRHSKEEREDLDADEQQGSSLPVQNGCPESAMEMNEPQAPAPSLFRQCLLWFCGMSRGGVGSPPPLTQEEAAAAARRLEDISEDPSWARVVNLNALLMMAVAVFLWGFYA
Assay: Inhibition of human kidneyl SGLT2 expressed in CHOK1 cells assessed as reduction in Na-dependent [14C]-AMG uptake preincubated for 10 mins followed by [14C]-AMG addition measured after 2 hrs by TopCount method
Strictly below 5 nM in IC50: yes. Otherwise: no.

Example results:
INSERT INTO measurements (molsmiles, classlabel) VALUES
  ('COc1c([C@@H]2O[C@H](CO)[C@@H](F)[C@H](O)[C@H]2O)cc(Cc2ccc3c(c2)SCCO3)c2c1CCO2', 'no'),
  ('COc1cc(C)c(Cc2cc3c(s2)CCN(C#N)C3)cc1[C@@H]1O[C@H](CO)[C@@H](F)[C@H](O)[C@H]1O', 'no'),
  ('Cc1cc(O)c([C@@H]2O[C@H](CO)[C@@H](F)[C@H](O)[C@H]2O)cc1Cc1cc2c(s1)CCN(C(=O)N1CCCC1)C2', 'no'),
  ('COc1c(Cc2ccc3c(c2)OCCO3)cc([C@@H]2O[C@H](CO)[C@@H](F)[C@H](O)[C@H]2O)c2c1CCO2', 'no');

Now look at this one.
Problem: Identify whether the compound "Cc1cc(O)c([C@@H]2O[C@H](CO)[C@@H](F)[C@H](O)[C@H]2O)cc1Cc1cc2c(s1)CCN(C#N)C2" records IC50 below 5 nM.
Result: yes

* * *

Experiment: Half life in human hepatocytes at 1 uM
Type: ADME, cell-based, Hepatocyte
Listed here: items and their measured half-life at 1 µM.
Give the quantity in h, number only.

Examples with answers:
INSERT INTO results (molsmiles, recordedmeasurement) VALUES
  ('Cc1ncc2n1-c1ccc(Cl)cc1C(c1ccccc1F)=NC2', 1),
  ('COc1c([C@@H]2O[C@H](CO)[C@@H](F)[C@H](O)[C@H]2O)cc(Cc2ccc3c(c2)OCCO3)c2c1CCO2', 5.4);

From here, focus on the item given below.
The value of half-life at 1 µM measured for the compound "O=C(O)Cc1ccccc1Nc1c(Cl)cccc1Cl" turned out to be 0.7

* * *

Catalogue of Cmax readings, one per entry.
Assay: Cmax in Sprague-Dawley rat at 10 mg/kg, po
Format: ADME, organism-based
Set-up: dose 10 mg/kg, route oral
Conditions: in vivo
Write the answer as a number in ng/mL, unit excluded.

response.value for "COc1c([C@@H]2O[C@H](CO)[C@@H](F)[C@H](O)[C@H]2O)cc(Cc2ccc3c(c2)OCCO3)c2c1CCO2" (field: Cmax) = 990

# compound "OC[C@H]1O[C@@H](c2cc(Cc3ccc4c(c3)OCCO4)c3c(c2O)CCO3)[C@H](O)[C@@H](O)[C@@H]1F" ; its Cmax = 168

GET /value?item= "Cc1cc(O)c([C@@H]2O[C@H](CO)[C@@H](F)[C@H](O)[C@H]2O)cc1Cc1cc2c(s1)CCN(C#N)C2" &field=Cmax returns 13.7

* * *

Experiment: Metabolic stability in mouse liver microsomes at 1 uM after 10 mins in presence of NADPH
Type: ADME, microsome
Conditions: read-out: Stability
Measured remaining at 10 min, 1 µM accompanies every entry in the list below.
Kindly answer with a numeric value in %, unit omitted.

Worked cases, remaining at 10 min, 1 µM given:
INSERT INTO assay_data (molsmiles, readoutunit, recordedmeasurement) VALUES
  ('COc1c(Cc2ccc3c(c2)OCCO3)cc([C@@H]2O[C@H](CO)[C@@H](F)[C@H](O)[C@H]2O)c2c1CCO2', '%', 94),
  ('COc1c([C@@H]2O[C@H](CO)[C@@H](F)[C@H](O)[C@H]2O)cc(Cc2ccc3c(c2)OCCO3)c2c1CCO2', '%', 82);

Reported remaining at 10 min, 1 µM of "CCOC(=O)N1CCc2sc(Cc3cc([C@@H]4O[C@H](CO)[C@@H](F)[C@H](O)[C@H]4O)c(O)cc3C)cc2C1" : 86

remaining at 10 min, 1 µM recorded for this molecule, "OC[C@H]1O[C@@H](c2cc(Cc3ccc4c(c3)OCCO4)c3c(c2O)CCO3)[C@H](O)[C@@H](O)[C@@H]1F" , is 97

Recorded result, "Cc1cc(O)c([C@@H]2O[C@H](CO)[C@@H](F)[C@H](O)[C@H]2O)cc1Cc1cc2c(s1)CCN(C(=O)N1CCCC1)C2" , remaining at 10 min, 1 µM: 74

Memo: "Cc1cc(O)c([C@@H]2O[C@H](CO)[C@@H](F)[C@H](O)[C@H]2O)cc1Cc1cc2c(s1)CCN(C#N)C2" , reported remaining at 10 min, 1 µM: 91

The measured remaining at 10 min, 1 µM associated with "Cc1cc(O)c([C@@H]2O[C@H](CO)[C@@H](F)[C@H](O)[C@H]2O)cc1Cc1cc2c(s1)CCN(C(=O)c1nccs1)C2" reads 66

So, "COc1c([C@@H]2O[C@H](CO)[C@@H](F)[C@H](O)[C@H]2O)cc(Cc2ccc3c(c2)SCCO3)c2c1CCO2" ? Its remaining at 10 min, 1 µM was 61

* * *

Test: Metabolic stability in human liver microsomes at 1 uM after 10 mins in presence of NADPH
Type: ADME, microsome
Details: read-out: Stability
endpointName: remaining at 10 min, 1 µM (%)
Dear colleague, please return just the value in %, with no unit written.

Sample records with remaining at 10 min, 1 µM:
INSERT INTO measurements (molsmiles, recordedmeasurement) VALUES
  ('OC[C@H]1O[C@@H](c2cc(Cc3ccc4c(c3)OCCO4)c3c(c2O)CCO3)[C@H](O)[C@@H](O)[C@@H]1F', 97),
  ('COc1c(Cc2ccc3c(c2)OCCO3)cc([C@@H]2O[C@H](CO)[C@@H](F)[C@H](O)[C@H]2O)c2c1CCO2', 91),
  ('COc1c([C@@H]2O[C@H](CO)[C@@H](F)[C@H](O)[C@H]2O)cc(Cc2ccc3c(c2)OCCO3)c2c1CCO2', 95);

Shift focus to the following entry.
For "Cc1cc(O)c([C@@H]2O[C@H](CO)[C@@H](F)[C@H](O)[C@H]2O)cc1Cc1cc2c(s1)CCN(C#N)C2" the compound record lists remaining at 10 min, 1 µM as 95
